Test system: estrogen receptor (rat uterine cytosol)
Test: DSSTox (NCTRER) National Center for Toxicological Research Estrogen Receptor Binding Database;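 further: ratio of estradiol IC50 over compound IC50 times 100 so estradiol equals 100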
Settings: rat uterine cytosol ER competitive binding, RBA; ChemClass_ERB: Phytoestrogens Mycoestrogens; active compounds read high
Records with an inconclusive call do not appear.
Assign satisfied whenever relative binding affinity does not fall below 2%; assign not satisfied whenever it does.

Previously resolved entries follow.
C[C@H]1CCC[C@H](O)CCCCCc2cc(O)cc(O)c2C(=O)O1 : satisfied
C[C@@H]1CCC[C@H](O)CCC/C=C/c2cc(O)cc(O)c2C(=O)O1 : not satisfied
C[C@H]1CCCC(=O)CCCCCc2cc(O)cc(O)c2C(=O)O1 : satisfied
C[C@H]1CCC[C@H](O)CCC/C=C/c2cc(O)cc(O)c2C(=O)O1 : satisfied

Input line: Has `C[C@H]1CCC[C@@H](O)CCCCCc2cc(O)cc(O)c2C(=O)O1` a recorded relative binding affinity greater than or equal to 2%?
Output line: not satisfied

====

Listed compounds paired with reported relative binding affinity
Test system: estrogen receptor (rat uterine cytosol)
Assay: DSSTox (NCTRER) National Center for Toxicological Research Estrogen Receptor Binding Database;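 further: ratio of estradiol IC50 over compound IC50 times 100 so estradiol equals 100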
Settings: rat uterine cytosol ER competitive binding, RBA; ChemClass_ERB: Phenols Parabens; active compounds read high
Inconclusive results are not listed.
Reply numerically in %, unit not repeated.

Examples with their reported relative binding affinity follow.
CCCCCCCOC(=O)c1ccc(O)cc1 : 0.00812
CCOC(=O)c1ccc(O)cc1 : 0.0006
CCCOC(=O)c1ccc(O)cc1 : 0.0006
COC(=O)c1ccc(O)cc1 : 0.00036

Input line: Kindly state the measured relative binding affinity obtained for `O=C(OCc1ccccc1)c1ccc(O)cc1` with estrogen receptor (rat uterine cytosol).
Output line: 0.00288

====

Test system: estrogen receptor (rat uterine cytosol)
Assay: DSSTox (NCTRER) National Center for Toxicological Research Estrogen Receptor Binding Database;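 further: ratio of estradiol IC50 over compound IC50 times 100 so estradiol equals 100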
Settings: rat uterine cytosol ER competitive binding, RBA; ChemClass_ERB: DES Derivatives; active compounds read high
Records with an inconclusive call do not appear.
Listed compounds paired with reported relative binding affinity
Reply numerically in %, unit not repeated.

C/C(=C(/C)c1ccc(O)cc1)c1ccc(O)cc1 : 14.4
Oc1ccc(/C=C/c2ccc(O)cc2)cc1 : 0.282
CC/C(=C(/CC)c1ccc(OC)cc1)c1ccc(O)cc1 : 20.4

Input line: Can you look up the measured relative binding affinity of `CC/C(=C(/CC)c1ccc(OC)cc1)c1ccc(OC)cc1` for me?
Output line: 0.056

Input line: Can you look up the measured relative binding affinity of `CC/C(=C(/CC)c1ccc(O)cc1)c1ccc(O)cc1` for me?
Output line: 398

====

Test system: estrogen receptor (rat uterine cytosol)
Assay: DSSTox (NCTRER) National Center for Toxicological Research Estrogen Receptor Binding Database;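 further: ratio of estradiol IC50 over compound IC50 times 100 so estradiol equals 100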
Conditions: rat uterine cytosol ER competitive binding, RBA; ChemClass_ERB: DES Hexestrol derivatives; active compounds read high
Inconclusive results are not listed.
Listed molecules paired with reported relative binding affinity
Reply numerically in %, unit not repeated.

Examples with their reported relative binding affinity follow.
CCC(c1ccc(O)cc1)C(CC)c1cc(C)c(O)c(C)c1 (stereo not drawn) : 8.91
C/C=C(/C(=C/C)c1ccc(O)cc1)c1ccc(O)cc1 : 37.1

Input line: Can you look up the measured relative binding affinity of `Oc1ccc(CCc2ccccc2)cc1` for me?
Output line: 0.00204

====

Listed compounds paired with reported relative binding affinity
Test system: estrogen receptor (rat uterine cytosol)
Experiment: DSSTox (NCTRER) National Center for Toxicological Research Estrogen Receptor Binding Database;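 further: ratio of estradiol IC50 over compound IC50 times 100 so estradiol equals 100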
Details: rat uterine cytosol ER competitive binding, RBA; ChemClass_ERB: Steroids Without aromatic A ring; active compounds read high
Inconclusive results are not listed.
Reply numerically in %, unit not repeated.

C[C@]12CC[C@H](O)C[C@@H]1CC[C@@H]1[C@@H]2CC[C@]2(C)[C@@H](O)CC[C@@H]12 : 0.12

Okay, now this compound:
Input line: Can you look up the measured relative binding affinity of `C[C@]12CC[C@@H](O)C[C@@H]1CC[C@@H]1[C@@H]2CC[C@]2(C)[C@@H](O)CC[C@@H]12` for me?
Output line: 0.0021
